Cited source for all entries: the supplement of paper PMC12645437

Biological target: T1, CRBN, Q96SW2;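 also: pooled lentiviral library of zinc finger degron-EGFP fusions in mCherry-positive Jurkat cells, FACS-sorted after compound exposure, with degron abundance counted by next-generation sequencing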
T1 chain: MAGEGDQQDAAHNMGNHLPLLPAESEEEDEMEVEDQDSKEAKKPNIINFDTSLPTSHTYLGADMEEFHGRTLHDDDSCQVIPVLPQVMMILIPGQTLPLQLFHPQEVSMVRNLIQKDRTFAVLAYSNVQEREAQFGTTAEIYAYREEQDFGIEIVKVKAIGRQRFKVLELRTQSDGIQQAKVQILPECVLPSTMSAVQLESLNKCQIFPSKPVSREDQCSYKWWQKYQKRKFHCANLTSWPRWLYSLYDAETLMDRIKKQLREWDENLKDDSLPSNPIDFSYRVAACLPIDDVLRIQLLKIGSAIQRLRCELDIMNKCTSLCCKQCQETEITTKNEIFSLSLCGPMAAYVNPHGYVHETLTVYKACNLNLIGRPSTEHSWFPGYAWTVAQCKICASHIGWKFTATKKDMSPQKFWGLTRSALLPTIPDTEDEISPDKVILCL
Assay: log2 fold change of degron read counts, EGFP-low vs EGFP+ sorted cells (limma voom), compound-induced degradation; higher = more compound-induced degradation of the degron-EGFP fusion; degrons are variants of IKZF1/3 zinc finger 2; compound dose not given here
Settings: Jurkat; 18 h; compound: thalidomide
In all, about 8,300 sequences were measured (“log2 fold change of degron read counts, EGFP-low vs EGFP+ sorted cells (limma voom), compound-induced degradation”: median about -1.1, highest 2% from about 3.2 on). Only a selection was taken, and the highest values are over-represented in it overall.
parameter-measured: log2 fold change of degron read counts

>>> print(df.to_string())
                              sequence_code                      parameter_measured  measurement
0  LHCEICGFQCTQKGNLLRHIKL [46L_47H_49E_50I_52G_53F_54Q_55C_67L_, Q9UKT9]  log2 fold change of degron read counts         1.64
1  FVCDVCGAGFTQKGNLLRHIKL [46F_47V_49D_50V_52G_53A_54G_55F_67L_, Q9UKT9]  log2 fold change of degron read counts        0.879
2  FFCDICGALFTQKGNLLRHIKL [46F_47F_49D_50I_52G_53A_54L_55F_67L_, Q9UKT9]  log2 fold change of degron read counts        -1.44
